B1: CPEB3 Ribozyme (parent)
chain: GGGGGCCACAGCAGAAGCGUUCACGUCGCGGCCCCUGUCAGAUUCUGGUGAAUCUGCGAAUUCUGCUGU

variants of: B1; test: self-cleavage, relative activity (ratio to wild type); higher = more cleavage; co-transcriptional
self-cleavage values, listed per item
No unit in the answer, please; the number alone is enough.

Sample records with self-cleavage:
C35A G37A = 0.221
C18A A51U = 0.181
U20C A52C = 0.181
C18U A52C = 0.759
C6U A60C = 0.318

Incoming: Look up self-cleavage for this variant: A23U A60U
Outgoing: 0.66

Incoming: Look up self-cleavage for this variant: C7A A59U
Outgoing: 0.157

Incoming: Look up self-cleavage for this variant: U43C A59C
Outgoing: 0.652

Incoming: Look up self-cleavage for this variant: A10U G19U
Outgoing: 0.589

Incoming: Look up self-cleavage for this variant: G1U G2A
Outgoing: 0.0657

Incoming: Look up self-cleavage for this variant: G30U G58U
Outgoing: 0.439

Incoming: Look up self-cleavage for this variant: A8G U21C
Outgoing: 0.584

Incoming: Look up self-cleavage for this variant: U36G G41A
Outgoing: 0.144

Incoming: Look up self-cleavage for this variant: A13G G56U
Outgoing: 0.742

Incoming: Look up self-cleavage for this variant: G11C U62C
Outgoing: 0.402

Incoming: Look up self-cleavage for this variant: G2U G30U
Outgoing: 0.0322

Incoming: Look up self-cleavage for this variant: U49G G56U
Outgoing: 0.978
